- Assay protocol: chemical genetic growth profiling, strain panel (AID 1159580);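 note: tested at 20 µM; growth read once vehicle control cultures reached saturation at 30 °C; lower values mean less growth of the strain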
- Condition parameters: S. cerevisiae deletion strains, growth OD, locus YNL248C, strain rpa49, hits give low values
About 2,000 (36%) of roughly 5,500 compounds were called active. Roughly 18% stayed inconclusive and do not appear here. Some of the results follow.
The label satisfied is reserved for normalized growth strictly under 1; not satisfied covers values equal to or above it.

{"columns": ["Compound", "Group"],
 "data": [
  ["CC(CCC(=O)O)[C@H]1CCC2C3C[C@H](O)[C@@H]4C[C@H](O)CC[C@]4(C)C3CC[C@@]21C (stereo partly drawn)", "not satisfied"],
  ["C[C@]12C=CC(=O)C=C1CCC1C3C[C@@H](O)[C@](O)(C(=O)CO)[C@@]3(C)C[C@H](O)[C@@]12F (stereo partly drawn)", "satisfied"],
  ["COc1ccc(C(=O)CC(=O)c2ccc(C(C)(C)C)cc2)cc1", "satisfied"],
  ["CC(CCC(=O)O)[C@H]1CCC2C3CC[C@@H]4C[C@H](O)CC[C@]4(C)C3CC[C@@]21C (stereo partly drawn)", "satisfied"],
  ["COC(=O)CCC(C)C1CCC2C3CC[C@@H]4C[C@H](O)CC[C@]4(C)C3C[C@H](O)[C@]12C (stereo partly drawn)", "not satisfied"],
  ["CC(CCC(=O)O)[C@H]1CCC2C3CC[C@@H]4C[C@H](O)CC[C@]4(C)C3C[C@H](O)[C@@]21C (stereo partly drawn)", "satisfied"],
  ["O=[N+]([O-])c1cccc2c(Br)[nH]nc12", "satisfied"],
  ["COC(=O)CCC(C)[C@H]1CCC2C3C(C[C@H](O)[C@@]21C)[C@@]1(C)CC[C@@H](O)C[C@H]1C[C@H]3O (stereo partly drawn)", "not satisfied"]
]}

====

- Assay protocol: chemical genetic growth profiling, strain panel (AID 1159580);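 note: tested at 20 µM; growth read once vehicle control cultures reached saturation at 30 °C; lower values mean less growth of the strain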
- Condition parameters: S. cerevisiae deletion strains, growth OD, locus YBR160W, strain CDC28
About 2,000 (36%) of roughly 5,500 compounds were called active. Roughly 18% stayed inconclusive and do not appear here. Rule as the data show it: active = normalized growth mostly below about 0.91 (no sharp cut-off); inconclusive = no clear call, values can overlap the other calls; inactive = mostly above about 0.92. The list shows a part of the results.
Outcomes: active, inactive

{"columns": ["Molecule", "Group"],
 "data": [
  ["CC1C/C(=N/Nc2ccc(Br)cc2)c2cc(Cl)ccc2S1(=O)=O (stereo unspecified)", "inactive"],
  ["COc1ccc(CC2CCC(=NOC(=O)c3ccc(C(C)(C)C)cc3)CC2)cc1 (stereo unspecified)", "inactive"],
  ["COc1ccc(OC)c(-c2ccn[nH]2)c1OCc1ccccc1", "inactive"],
  ["COc1ccc(CC2CCC(=NOC(=O)c3c(Cl)cccc3Cl)CC2)cc1 (stereo unspecified)", "inactive"],
  ["O=C1/C(=C/c2ccc(C(F)(F)F)cc2)COc2ccccc21", "inactive"],
  ["Oc1ccc(N=Nc2ccccn2)c(O)c1", "active"],
  ["O=C(NNc1ccc(Cl)cc1)c1ccc(F)cc1F", "inactive"],
  ["COc1cc(CC/C(C)=N\\O)ccc1OCc1ccc(Cl)c(Cl)c1", "inactive"],
  ["CNC(=O)n1nc(C)c(Cc2csc3ccc(Cl)cc23)c1C", "inactive"],
  ["COc1ccc(C(=O)NCc2csc3ccc(Cl)cc23)cc1OC", "inactive"],
  ["O=C(CCn1c(=O)oc2ccccc21)Sc1ccc(Cl)cc1Cl", "active"]
]}
